Test system: Sprague Dawley rats
EXPERIMENTAL DETAILS: Feed intake in Sprague Dawley rats
Assay type: in vivo, rat
EXPERIMENTAL CONDITIONS: oral, 50 mg/kg, cumulative feed intake vs vehicle, 2 hour
Could you label it Yes if measured % reduction in food in take, 2 hour is 30% or higher, and No otherwise?

{"columns": ["COMPOUND", "TEST SYSTEM", "CAT"],
 "data": [
  ["CCc1cnc(N2CCC(Oc3ccc(C[C@H]4CO[S@@](=O)OC4)cc3)CC2)nc1", "Sprague Dawley rats", "No"],
  ["Cc1c(Oc2ccc(C[C@H]3CO[S@@](=O)OC3)cc2Cl)ncnc1OC1CCN(C(=O)OC(C)(C)C)CC1", "Sprague Dawley rats", "Yes"],
  ["Cc1c(Oc2ccc([C@H]3CO[S@@](=O)OC3)cc2)ncnc1OC1CCN(C(=O)OC(C)C)CC1", "Sprague Dawley rats", "No"],
  ["Cc1c(Oc2ccc([C@H]3CO[S@@](=O)OC3)cc2)ncnc1OC1CCN(C(=O)Nc2ccc(Cl)cc2Cl)CC1", "Sprague Dawley rats", "No"],
  ["Cc1c(Oc2ccc(C3COS(=O)OC3)cc2)ncnc1OC1CCN(C(=O)OC(C)C)CC1 (stereo not shown)", "Sprague Dawley rats", "Yes"],
  ["CC(C)(C)OC(=O)N1CCC(c2nc(COc3ccc(CC4COS(=O)OC4)cc3)cs2)CC1 (stereo not shown)", "Sprague Dawley rats", "Yes"],
  ["CCc1cnc(N2CCC(Oc3ccc(C[C@H]4CO[S@](=O)OC4)cc3)CC2)nc1", "Sprague Dawley rats", "Yes"]
]}

* * *

Test system: Sprague Dawley rats
EXPERIMENTAL DETAILS: Feed intake in Sprague Dawley rats
Type: in vivo, rat
EXPERIMENTAL CONDITIONS: oral, 50 mg/kg, cumulative feed intake vs vehicle, 24 hour
OUTCOME MEASURE: % reduction in food in take, 24 hour (%)

{"columns": ["COMPOUND", "UNITS TEXT", "OBSERVED RESULT"],
 "data": [
  ["CCc1cnc(N2CCC(Oc3ccc(C[C@H]4CO[S@](=O)OC4)cc3)CC2)nc1", "%", 5.3],
  ["Cc1c(Oc2ccc(C[C@H]3CO[S@@](=O)OC3)cc2Cl)ncnc1OC1CCN(C(=O)OC(C)(C)C)CC1", "%", 15],
  ["Cc1c(Oc2ccc(C3COS(=O)OC3)cc2)ncnc1OC1CCN(C(=O)OC(C)C)CC1 (stereo not drawn)", "%", 10],
  ["Cc1c(Oc2ccc([C@H]3CO[S@@](=O)OC3)cc2)ncnc1OC1CCN(C(=O)OC(C)C)CC1", "%", 3],
  ["CCc1cnc(N2CCC(Oc3ccc(C[C@H]4CO[S@@](=O)OC4)cc3)CC2)nc1", "%", 11],
  ["Cc1c(Oc2ccc([C@H]3CO[S@@](=O)OC3)cc2)ncnc1OC1CCN(C(=O)Nc2ccc(Cl)cc2Cl)CC1", "%", 7]
]}

* * *

Test system: C57/BL6 mice
EXPERIMENTAL DETAILS: Oral glucose tolerance test (OGTT) in C57/BL6 mice
Format: in vivo, mouse
EXPERIMENTAL CONDITIONS: Mus musculus, 2 h, serum glucose AUC, single oral dose, glucose load 3 gm/kg, read-out: % reduction in AUC at 50 mg/kg
Could you label it criterion met if measured inhibition in vivo at 50 mg/kg is 30% or higher, and criterion not met otherwise?

{"columns": ["COMPOUND", "CAT"],
 "data": [
  ["CCc1cnc(N2CCC(Oc3ncnc(Oc4ccc([C@H]5CO[S@](=O)OC5)cc4)c3C)CC2)nc1 [Example 10]", "criterion not met"],
  ["CC(C)c1noc(C2CCN(c3ncnc(Oc4ccc([C@H]5CO[S@@](=O)OC5)cc4)c3[N+](=O)[O-])CC2)n1 [Example 1]", "criterion not met"],
  ["Cc1c(Oc2ccc([C@H]3CO[S@](=O)OC3)cc2)ncnc1OC1CCN(c2nc(C(C)C)no2)CC1 [Example 4]", "criterion met"],
  ["Cc1c(Oc2ccc([C@H]3CO[S@](=O)OC3)cc2)ncnc1OC1CCN(C(=O)OCC(C)C)CC1 [Example 28]", "criterion met"],
  ["Cc1c(Oc2ccc(C[C@H]3CO[S@](=O)OC3)cc2)ncnc1OC1CCN(C(=O)OCC(C)C)CC1 [Example 44]", "criterion met"],
  ["CCc1cnc(N2CCC(Oc3ncnc(Oc4ccc([C@H]5CO[S@@](=O)OC5)cc4)c3C)CC2)nc1 [Example 9]", "criterion met"],
  ["CCc1cnc(N2CCC(Oc3ncnc(Oc4ccc(C[C@H]5CO[S@](=O)OC5)cc4)c3C)CC2)nc1 [Example 32]", "criterion met"],
  ["Cc1c(Oc2ccc([C@H]3CO[S@@](=O)OC3)cc2)ncnc1OC1CCN(c2nc(C(C)C)no2)CC1 [Example 3]", "criterion not met"],
  ["Cc1c(Oc2ccc([C@H]3CO[S@](=O)OC3)cc2)ncnc1OC1CCN(C(=O)OC(C)(C)C)CC1 [Example 16]", "criterion met"],
  ["CCOC(=O)N1CCC(Oc2ncnc(Oc3ccc([C@H]4CO[S@](=O)OC4)cc3)c2C)CC1 [Example 34]", "criterion not met"]
]}

* * *

Test system: Sprague Dawley rats
EXPERIMENTAL DETAILS: Feed intake in Sprague Dawley rats
Assay type: in vivo, rat
EXPERIMENTAL CONDITIONS: Rattus norvegicus, ip; intraperitoneal, 25 mg/kg, cumulative feed intake vs vehicle, 24 hour; read-out: % reduction in food in take, 24 hour

{"columns": ["COMPOUND", "UNITS TEXT", "inhibition in vivo at 25 mg/kg"],
 "data": [
  ["Cc1c(Oc2ccc([C@H]3CO[S@@](=O)OC3)cc2)ncnc1OC1CCN(C(=O)OCC(C)C)CC1 [Example 27]", "%", 17],
  ["Cc1c(Oc2ccc([C@H]3CO[S@](=O)OC3)cc2)ncnc1OC1CCN(C(=O)OCC(C)C)CC1 [Example 28]", "%", 24],
  ["Cc1c(Oc2ccc([C@H]3CO[S@@](=O)OC3)cc2)ncnc1OC1CCN(C(=O)OC(C)(C)C)CC1 [Example 15]", "%", 19],
  ["Cc1c(Oc2ccc([C@H]3CO[S@@](=O)OC3)cc2)ncnc1OC1CCN(c2nc(C(C)C)no2)CC1 [Example 3]", "%", 17],
  ["CCc1cnc(N2CCC(Oc3ncnc(Oc4ccc(C[C@H]5CO[S@](=O)OC5)cc4)c3C)CC2)nc1 [Example 32]", "%", 18],
  ["CCOC(=O)N1CCC(Oc2ncnc(Oc3ccc([C@H]4CO[S@](=O)OC4)cc3)c2C)CC1 [Example 34]", "%", 10],
  ["CC(C)c1noc(C2CCN(c3ncnc(Oc4ccc([C@H]5CO[S@@](=O)OC5)cc4)c3[N+](=O)[O-])CC2)n1 [Example 1]", "%", 4],
  ["CCOC(=O)N1CCC(Oc2ncnc(Oc3ccc([C@H]4CO[S@@](=O)OC4)cc3)c2C)CC1 [Example 33]", "%", 21],
  ["CCc1cnc(N2CCC(Oc3ncnc(Oc4ccc([C@H]5CO[S@@](=O)OC5)cc4)c3C)CC2)nc1 [Example 9]", "%", 24]
]}

* * *

Listing of recorded EC50 by entry.
TEST SYSTEM: recombinant human GPR 119 receptor (Homo sapiens, UniProt Q8TDV5)
Sequence (Q8TDV5 whole entry): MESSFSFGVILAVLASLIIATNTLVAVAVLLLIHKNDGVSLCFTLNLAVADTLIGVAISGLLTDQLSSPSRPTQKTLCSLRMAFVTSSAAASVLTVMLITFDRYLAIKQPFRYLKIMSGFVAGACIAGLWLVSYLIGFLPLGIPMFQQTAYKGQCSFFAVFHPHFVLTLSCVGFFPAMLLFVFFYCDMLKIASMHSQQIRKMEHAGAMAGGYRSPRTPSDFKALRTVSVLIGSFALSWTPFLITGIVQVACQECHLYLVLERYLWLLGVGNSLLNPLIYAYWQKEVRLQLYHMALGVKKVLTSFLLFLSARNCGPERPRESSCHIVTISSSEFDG
EXPERIMENTAL DETAILS: cAMP assay in stable cell line expressing recombinant human GPR 119 receptor
EXPERIMENTAL CONDITIONS: intracellular cAMP
OUTCOME MEASURE: EC50 (nM)

{"columns": ["COMPOUND", "OBSERVED RESULT"],
 "data": [
  ["Cc1c(Oc2ccc([C@H]3CO[S@](=O)OC3)cc2)ncnc1OC1CCN(c2nc(C(C)C)no2)CC1 [Example 4]", 11],
  ["CCOC(=O)N1CCC(Oc2ncnc(Oc3ccc([C@H]4CO[S@@](=O)OC4)cc3)c2C)CC1 [Example 33]", 86],
  ["CCc1cnc(N2CCC(Oc3ncnc(Oc4ccc(C[C@H]5CO[S@](=O)OC5)cc4)c3C)CC2)nc1 [Example 32]", 86],
  ["Cc1c(Oc2ccc([C@H]3CO[S@@](=O)OC3)cc2)ncnc1OC1CCN(c2nc(C(C)C)no2)CC1 [Example 3]", 13],
  ["Cc1c(Oc2ccc([C@H]3CO[S@@](=O)OC3)cc2)ncnc1OC1CCN(C(=O)OC(C)(C)C)CC1 [Example 15]", 4.2]
]}

Data provenance: patent US8772302B2
